system: T1, Anti-CD28 scFv (VH-linker 1-VL) (biotinylated (site not stated))
T1 construct: biotinylated and captured on neutravidin coated plates in the phage ELISA
T1 sequence (scFv, as listed by the source): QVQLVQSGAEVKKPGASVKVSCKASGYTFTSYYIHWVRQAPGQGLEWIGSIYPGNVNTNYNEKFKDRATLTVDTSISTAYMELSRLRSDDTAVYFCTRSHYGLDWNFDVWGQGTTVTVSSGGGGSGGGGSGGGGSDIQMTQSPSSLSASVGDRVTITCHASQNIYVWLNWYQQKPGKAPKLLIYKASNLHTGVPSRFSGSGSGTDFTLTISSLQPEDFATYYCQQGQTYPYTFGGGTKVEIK
experiment-summary: phage binding ELISA on captured anti-CD28 scFv, wells pre-incubated with soluble CD28 (competitor);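 note: crude clonal phage supernatants added without washing, bound phage detected by HRP-conjugated anti-M13 antibody, control wells held blocking buffer alone instead of CD28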
Label label 1 when CD28 scFv signal in presence of CD28 >= 0.2; otherwise label 0.

Solved cases below.
IDWCPLHLWHECYH [Phage-353]    label 0
MDWCPRHMWHECFH [Phage-402]    label 0
MHWCPLHLWNECFA [Phage-378]    label 0
MSWCPPYLWTVCYN [Phage-368]    label 1
MDWCPRYLWDECFS [Phage-334]    label 0

Ask: Is reported CD28 scFv signal in presence of CD28 greater than or equal to 0.2 here: MDWCPSFLWYECFN [Phage-367]
Result: label 0

Ask: Could you please find out whether MAWCPRILWHQCFN [Phage-381] has CD28 scFv signal in presence of CD28 that meets 0.2 or exceeds it?
Result: label 0

Ask: Given the entry LHWCPITMWTYCYY [Phage-409] , answer whether its CD28 scFv signal in presence of CD28 meets or surpasses 0.2.
Result: label 1
